molecular target: NaV1.1 (Homo sapiens (Human)); test: Sodium Influx Assay (Flux), NaV1.1; type: cell-based; conditions: Trex HEK293 cells, ANG2 dye; arithmetic mean
Where a name gives a salt, the structure may show the parent alone.
Listed next: entries and their corresponding IC50.
Unit µM implied. Number only.

Tell me measured IC50 for Cc1cc(S(=O)(=O)Nc2cscn2)c(F)cc1N(C)[C@H]1CCN(Cc2cccc(C)c2F)C1 [Example 127, 2,2,2-trifluoroacetate] please.
10.7

Tell me measured IC50 for Cc1cc(S(=O)(=O)Nc2cscn2)c(F)cc1N(C)[C@H]1CCN(Cc2csc(C3CC3)n2)C1 [Example 138] please.
9.48

Tell me measured IC50 for CN(c1cc(F)c(S(=O)(=O)Nc2cscn2)cc1Cl)[C@H]1CCN(C2Cc3ccccc3C2)C1 [Example 166, formate] please.
7.79

====

Listed next: entries and their corresponding pIC50.
target: NaV1.6 (Homo sapiens (Human), UniProt Q9UQD0); assay: Electrophysiological Assay (EP), patch voltage clamp, NaV1.6; type: cell-based; conditions: HEK-293 cells, whole-cell patch clamp, inactivated state; arithmetic mean
Sequence (Q9UQD0 whole entry): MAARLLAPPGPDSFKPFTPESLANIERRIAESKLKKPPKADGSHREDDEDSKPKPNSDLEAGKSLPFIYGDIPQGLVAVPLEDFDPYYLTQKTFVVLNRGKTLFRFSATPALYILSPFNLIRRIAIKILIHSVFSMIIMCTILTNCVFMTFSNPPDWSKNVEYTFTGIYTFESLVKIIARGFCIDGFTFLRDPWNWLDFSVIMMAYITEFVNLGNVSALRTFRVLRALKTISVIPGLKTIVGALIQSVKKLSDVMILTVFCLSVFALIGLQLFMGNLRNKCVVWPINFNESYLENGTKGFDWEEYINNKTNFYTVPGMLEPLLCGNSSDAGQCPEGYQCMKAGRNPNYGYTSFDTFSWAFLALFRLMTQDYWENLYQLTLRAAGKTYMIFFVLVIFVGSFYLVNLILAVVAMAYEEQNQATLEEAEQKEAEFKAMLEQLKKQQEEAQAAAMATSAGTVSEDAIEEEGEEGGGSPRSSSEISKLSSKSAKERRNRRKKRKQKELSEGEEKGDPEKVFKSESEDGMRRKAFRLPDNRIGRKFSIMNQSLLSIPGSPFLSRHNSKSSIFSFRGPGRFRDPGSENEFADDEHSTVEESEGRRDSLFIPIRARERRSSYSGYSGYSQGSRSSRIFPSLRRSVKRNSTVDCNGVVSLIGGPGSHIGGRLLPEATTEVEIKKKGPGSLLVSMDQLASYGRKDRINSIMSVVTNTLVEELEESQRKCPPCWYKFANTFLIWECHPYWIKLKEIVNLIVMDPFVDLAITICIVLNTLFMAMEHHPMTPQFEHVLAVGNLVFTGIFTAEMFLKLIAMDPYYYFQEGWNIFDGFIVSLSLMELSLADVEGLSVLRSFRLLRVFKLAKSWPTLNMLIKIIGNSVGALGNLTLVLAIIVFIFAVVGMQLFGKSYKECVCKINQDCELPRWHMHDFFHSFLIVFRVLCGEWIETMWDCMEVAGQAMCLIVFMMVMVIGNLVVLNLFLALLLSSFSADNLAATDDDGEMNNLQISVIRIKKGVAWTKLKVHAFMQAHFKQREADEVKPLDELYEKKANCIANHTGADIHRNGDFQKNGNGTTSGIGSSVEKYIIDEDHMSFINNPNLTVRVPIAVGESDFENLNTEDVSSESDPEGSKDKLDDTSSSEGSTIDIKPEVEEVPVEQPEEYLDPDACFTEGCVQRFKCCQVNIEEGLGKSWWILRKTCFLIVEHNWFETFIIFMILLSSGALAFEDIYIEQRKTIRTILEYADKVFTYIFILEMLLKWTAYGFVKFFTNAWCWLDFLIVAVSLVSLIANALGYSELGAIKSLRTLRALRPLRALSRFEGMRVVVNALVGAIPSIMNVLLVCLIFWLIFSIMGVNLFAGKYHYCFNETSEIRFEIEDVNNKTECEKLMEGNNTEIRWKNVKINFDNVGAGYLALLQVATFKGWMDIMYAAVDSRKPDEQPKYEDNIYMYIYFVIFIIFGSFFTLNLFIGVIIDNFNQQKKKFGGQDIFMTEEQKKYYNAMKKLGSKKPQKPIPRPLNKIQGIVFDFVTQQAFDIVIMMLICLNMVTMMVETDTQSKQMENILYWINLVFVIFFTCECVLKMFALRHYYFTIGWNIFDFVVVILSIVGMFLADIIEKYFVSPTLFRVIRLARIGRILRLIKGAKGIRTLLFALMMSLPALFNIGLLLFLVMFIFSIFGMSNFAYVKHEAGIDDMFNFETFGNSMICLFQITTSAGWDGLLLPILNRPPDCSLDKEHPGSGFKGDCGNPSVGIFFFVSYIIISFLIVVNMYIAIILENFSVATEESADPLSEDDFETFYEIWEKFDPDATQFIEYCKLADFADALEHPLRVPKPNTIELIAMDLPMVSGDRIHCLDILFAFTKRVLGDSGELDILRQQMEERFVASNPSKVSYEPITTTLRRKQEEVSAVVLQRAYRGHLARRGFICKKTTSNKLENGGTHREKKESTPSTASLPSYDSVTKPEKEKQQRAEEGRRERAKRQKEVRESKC
Counter-ions that a name gives are not always drawn.
Remember the convention: pIC50 equals -log10 of concentration in molar.

Some compounds with recorded pIC50:
Tell me measured pIC50 for "O=S(=O)(Nc1nccs1)c1cc(Cl)c(N[C@H]2CCN(Cc3ccccc3)C2)cc1F" please.
6.41

Tell me measured pIC50 for C[C@H]1CN(Cc2ccccc2)C[C@@H]1Nc1ccc(S(=O)(=O)Nc2nccs2)cc1Cl (relative stereo) please.
7.60

Tell me measured pIC50 for C[C@H](c1ccccc1)N1CC[C@H](N(C)c2ccc(S(=O)(=O)Nc3cscn3)cc2Cl)C1 [Example 251, 2,2,2-trifluoroacetate] please.
6.39

Tell me measured pIC50 for "Cc1cccc(CN2CC[C@H](N(C)c3ccc(S(=O)(=O)Nc4ncns4)cc3Cl)C2)c1" please.
7.44

New cases:
Tell me measured pIC50 for Cc1c(O[C@H]2CCN(Cc3ccccc3)C2)cc(F)c(S(=O)(=O)Nc2cscn2)c1F [Example 269, hydrochloride] please.
6.48

Tell me measured pIC50 for Cc1cccc(CN2CC[C@H](N(C)c3cc(F)c(S(=O)(=O)Nc4cscn4)c(F)c3C)C2)n1 [Example 104, formate] please.
7.96

Tell me measured pIC50 for "O=S(=O)(Nc1nccs1)c1ccc(OC2CCN(Cc3cccc(C(F)F)c3)CC2)c(Cl)c1" please.
7.09

====

Structures can show the parent of a compound that is named as a salt.
Data export: log10 of IC50 values recorded with NaV1.5 (Homo sapiens (Human), UniProt Q14524).
Sequence (Q14524 other isoform, or with tags, fused parts or gaps): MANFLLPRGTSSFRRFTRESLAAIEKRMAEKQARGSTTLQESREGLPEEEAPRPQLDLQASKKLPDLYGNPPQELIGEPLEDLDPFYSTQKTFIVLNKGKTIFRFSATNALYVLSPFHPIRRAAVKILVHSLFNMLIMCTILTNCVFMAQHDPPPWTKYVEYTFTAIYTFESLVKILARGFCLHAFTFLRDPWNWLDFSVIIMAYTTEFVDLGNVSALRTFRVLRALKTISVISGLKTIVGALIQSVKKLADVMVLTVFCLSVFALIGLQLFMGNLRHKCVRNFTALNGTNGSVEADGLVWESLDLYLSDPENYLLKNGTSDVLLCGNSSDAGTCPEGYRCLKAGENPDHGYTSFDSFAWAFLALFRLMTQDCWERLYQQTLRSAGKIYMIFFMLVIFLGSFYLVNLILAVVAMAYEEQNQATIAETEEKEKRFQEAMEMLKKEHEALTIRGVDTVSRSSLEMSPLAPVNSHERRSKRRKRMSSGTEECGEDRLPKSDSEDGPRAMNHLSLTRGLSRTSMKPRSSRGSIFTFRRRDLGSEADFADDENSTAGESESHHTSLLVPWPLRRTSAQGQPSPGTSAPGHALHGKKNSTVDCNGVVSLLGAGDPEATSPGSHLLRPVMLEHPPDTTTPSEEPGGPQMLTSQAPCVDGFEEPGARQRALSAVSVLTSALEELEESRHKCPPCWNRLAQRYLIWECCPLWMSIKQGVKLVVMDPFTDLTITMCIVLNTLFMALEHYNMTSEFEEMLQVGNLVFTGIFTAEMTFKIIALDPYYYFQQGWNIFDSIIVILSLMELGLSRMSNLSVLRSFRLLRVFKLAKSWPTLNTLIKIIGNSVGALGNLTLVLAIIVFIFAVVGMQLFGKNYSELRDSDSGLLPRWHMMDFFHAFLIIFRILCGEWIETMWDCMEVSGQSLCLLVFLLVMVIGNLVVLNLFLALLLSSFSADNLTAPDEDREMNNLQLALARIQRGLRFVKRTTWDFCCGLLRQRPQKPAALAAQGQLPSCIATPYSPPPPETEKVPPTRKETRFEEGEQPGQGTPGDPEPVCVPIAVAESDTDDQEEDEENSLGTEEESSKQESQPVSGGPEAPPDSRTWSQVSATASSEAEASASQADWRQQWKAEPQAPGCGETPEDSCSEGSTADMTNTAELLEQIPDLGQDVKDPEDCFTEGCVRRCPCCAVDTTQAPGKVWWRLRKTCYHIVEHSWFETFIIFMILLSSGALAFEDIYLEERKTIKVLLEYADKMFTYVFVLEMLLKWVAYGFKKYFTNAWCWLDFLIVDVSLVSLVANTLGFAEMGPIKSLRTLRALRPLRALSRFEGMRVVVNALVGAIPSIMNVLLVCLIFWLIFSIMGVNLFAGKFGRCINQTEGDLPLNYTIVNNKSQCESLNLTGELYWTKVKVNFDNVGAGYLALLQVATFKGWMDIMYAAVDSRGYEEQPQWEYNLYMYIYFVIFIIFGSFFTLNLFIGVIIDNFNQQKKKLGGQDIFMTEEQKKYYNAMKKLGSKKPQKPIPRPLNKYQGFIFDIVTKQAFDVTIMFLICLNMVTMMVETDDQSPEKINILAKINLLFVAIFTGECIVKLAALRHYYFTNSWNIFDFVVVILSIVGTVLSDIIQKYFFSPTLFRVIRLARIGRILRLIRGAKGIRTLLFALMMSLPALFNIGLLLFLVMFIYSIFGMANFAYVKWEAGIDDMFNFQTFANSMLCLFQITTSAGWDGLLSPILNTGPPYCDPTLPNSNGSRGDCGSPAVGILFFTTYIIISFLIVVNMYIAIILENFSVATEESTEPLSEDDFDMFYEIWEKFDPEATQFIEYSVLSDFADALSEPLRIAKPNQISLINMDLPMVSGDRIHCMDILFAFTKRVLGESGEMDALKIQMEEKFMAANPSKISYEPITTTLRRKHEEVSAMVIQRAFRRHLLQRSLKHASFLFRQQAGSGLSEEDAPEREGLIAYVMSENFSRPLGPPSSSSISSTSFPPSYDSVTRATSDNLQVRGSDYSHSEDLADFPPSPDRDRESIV
// do not treat as linear: log10 of IC50, unit µM

Tell me measured log10 of IC50 for "O=S(=O)(Nc1cscn1)c1ccc(O[C@@H]2C[C@H]3CC[C@@H](C2)N3Cc2cc(Cl)ccc2F)c(Cl)c1" please.
0.71

Tell me measured log10 of IC50 for C[C@H](c1ccccc1)N1CCC(N(C)c2cc(F)c(S(=O)(=O)Nc3cscn3)cc2Cl)CC1 [Example 280, formate] please.
1.43

Tell me measured log10 of IC50 for "O=S(=O)(Nc1cscn1)c1ccc(O[C@@H]2C[C@H]3CC[C@@H](C2)N3Cc2ccccc2)c(Cl)c1" please.
1.24

New cases:
Tell me measured log10 of IC50 for "CN(c1cc(F)c(S(=O)(=O)Nc2nccs2)cc1Cl)C1CCN(Cc2ccccc2)CC1" please.
1.39

Tell me measured log10 of IC50 for "O=S(=O)(Nc1cscn1)c1ccc(O[C@@H]2C[C@H]3CC[C@@H](C2)N3Cc2ccc(F)c(Cl)c2)c(Cl)c1" please.
0.39

Tell me measured log10 of IC50 for Cc1cc(S(=O)(=O)Nc2cscn2)c(F)cc1N(C)C1CCN([C@H](C)c2ccccc2)CC1 [Example 281, 2,2,2-trifluoroacetate] please.
1.12

====

Listed next: entries and their corresponding pIC50.
biological target: NaV1.6 (Homo sapiens (Human)); assay: Sodium Influx Assay (Flux), NaV1.6; conditions: read-out: Flux NaV1.6 IC50; Trex HEK293 cells, ANG2 dye; arithmetic mean
Remember the convention: pIC50 equals -log10 of concentration in molar.

Some compounds with recorded pIC50:
Tell me measured pIC50 for CN(c1cc(F)c(S(=O)(=O)Nc2cscn2)cc1Cl)[C@H]1CCN(Cc2cccc(Br)n2)C1 [Example 178] please.
5.96

Tell me measured pIC50 for Cc1cn(C)c(CN2CC[C@H](N(C)c3cc(F)c(S(=O)(=O)Nc4cscn4)cc3C)C2)n1 [Example 150] please.
6.02

Tell me measured pIC50 for C[C@@H](c1ccccc1)N1CC[C@H](N(C)c2ccc(S(=O)(=O)Nc3cscn3)cc2Cl)C1 [Example 250, 2,2,2-trifluoroacetate] please.
5.85

Here's the next entry for you.
Tell me measured pIC50 for C[C@@H]1CN(Cc2ccccc2)C[C@@H]1Nc1ccc(S(=O)(=O)Nc2nccs2)cc1Cl (relative stereo) [Example 75] please.
6.18

====

target: NaV1.6 (Homo sapiens (Human)); experiment: Sodium Influx Assay (Flux), NaV1.6; details: read-out: Flux NaV1.6 IC50; Trex HEK293 cells, ANG2 dye; arithmetic mean
Where a name gives a salt, the structure may show the parent alone.
Listed next: entries and their corresponding pIC50.
Remember the convention: pIC50 equals -log10 of concentration in molar.

Tell me measured pIC50 for CN(c1ccc(S(=O)(=O)Nc2cscn2)cc1Cl)[C@H]1CCN(Cc2ccccc2)C1 [Example 41, 2,2,2-trifluoroacetate] please.
5.98

Tell me measured pIC50 for "O=S(=O)(Nc1nccs1)c1cc(Cl)c(N[C@@H]2CCN(Cc3ccccc3)C2)cc1F" please.
6.30

Tell me measured pIC50 for CN(c1cc(F)c(S(=O)(=O)Nc2cscn2)c(F)c1Cl)[C@H]1CCN(Cc2ccccc2)C1 [Example 102, formate] please.
6.15

Tell me measured pIC50 for "Cc1cccc(C)c1CN1CC[C@H](N(C)c2cc(F)c(S(=O)(=O)Nc3cscn3)cc2Cl)C1" please.
5.38

====

biological target: NaV1.1 (Homo sapiens (Human)); experiment: Sodium Influx Assay (Flux), NaV1.1; type: cell-based; details: Trex HEK293 cells, ANG2 dye; arithmetic mean
Listed next: entries and their corresponding pIC50.
Remember the convention: pIC50 equals -log10 of concentration in molar.

Some compounds with recorded pIC50:
Tell me measured pIC50 for CN(c1cc(F)c(S(=O)(=O)Nc2nccs2)cc1Cl)C1CCN(Cc2ccccc2)CC1 [Example 53] please.
5.13

Tell me measured pIC50 for O=S(=O)(Nc1nccs1)c1ccc(OC2CCN(Cc3cccc(C(F)F)c3)CC2)c(Cl)c1 [Example 11] please.
5.09

Tell me measured pIC50 for CN(c1ccc(S(=O)(=O)Nc2ncns2)cc1Cl)[C@H]1CCN(Cc2cc(F)ccc2F)C1 [Example 325] please.
4.63

Tell me measured pIC50 for CN(c1ccc(S(=O)(=O)Nc2nccs2)cc1Cl)[C@H]1CCN(Cc2cccc(C(F)F)c2)C1 [Example 28] please.
5.49

New cases:
Tell me measured pIC50 for O=S(=O)(Nc1cscn1)c1ccc(O[C@@H]2C[C@H]3CC[C@@H](C2)N3Cc2ccc(F)c(Cl)c2)c(Cl)c1 [Example 319] please.
5.43

Tell me measured pIC50 for Cc1c(N(C)[C@H]2CCN(Cc3ccccc3)C2)ccc(S(=O)(=O)Nc2cscn2)c1F [Example 321, 2,2,2-trifluoroacetate] please.
4.91

Tell me measured pIC50 for Cc1cc(S(=O)(=O)Nc2cscn2)c(F)cc1N(C)[C@H]1CCN(Cc2csc(-c3ccccc3)n2)C1 [Example 135] please.
6.25

====

target: NaV1.1 (Homo sapiens (Human)); assay: Sodium Influx Assay (Flux), NaV1.1; format: cell-based; details: Trex HEK293 cells, ANG2 dye; arithmetic mean
Listed next: entries and their corresponding IC50.
Unit µM implied. Number only.

Tell me measured IC50 for C[C@H]1CN(Cc2ccccc2)C[C@@H]1Nc1ccc(S(=O)(=O)Nc2nccs2)cc1Cl (relative stereo) please.
1.54

Tell me measured IC50 for C[C@H](c1ccccc1)N1CCC(Oc2ccc(S(=O)(=O)Nc3cscn3)cc2Cl)CC1 [Example 57, 2,2,2-trifluoroacetate] please.
13.7

Tell me measured IC50 for "Cc1cc(S(=O)(=O)Nc2cscn2)c(F)cc1N(C)[C@H]1CCN(CCc2ccccc2)C1" please.
6.75

Tell me measured IC50 for "CN(c1cc(F)c(S(=O)(=O)Nc2cscn2)cc1Cl)[C@H]1CCN(Cc2cccc(C(F)(F)F)c2)C1" please.
2.94

Tell me measured IC50 for CN(c1ccc(S(=O)(=O)Nc2cscn2)c(F)c1Cl)[C@H]1CCN([C@H]2CCc3ccccc32)C1 [Example 247, 2,2,2-trifluoroacetate] please.
6.87

Here's the next entry for you.
Tell me measured IC50 for Cc1c(OC2CCN(Cc3ccccc3)CC2)cc(F)c(S(=O)(=O)Nc2nccs2)c1F [Example 223, 2,2,2-trifluoroacetate] please.
2.58
